# pIC50 annotations
Tested on: MCF7
protocol text: MTT cell proliferation assay, MCF7
Type: cell-based
experimental parameters: Homo sapiens; MCF7 cell line (mammary gland; breast)
pIC50: −log10 of the molar value.

Here are 4 molecules together with their reported answers.
C[C@]1(CO)C(O)[C@H](n2ccc(N)nc2=O)O[C@@H]1CO (stereo partly drawn) [compound 1056]
< 3.30
CC12C(=O)OC[C@H]1O[C@@H](n1ccc(N)nc1=O)C2O (mixture of isomers) [LCB-1079]
3.55
C[C@@]1(CO)[C@@H](CO)O[C@@H](n2ccc(N)nc2=O)[C@@H]1O [LCB-1095]
3.37
CC12C(=O)OC[C@H]1O[C@@H](n1cc(F)c(N)nc1=O)C2O (mixture of isomers) [LCB-1080]
< 3.30

Fill in: pIC50 of C[C@]1(C(=O)NN)[C@@H](CO)O[C@@H](n2cc(F)c(N)nc2=O)[C@@H]1O [LCB-1085] is ___
< 4.00

Returns the measured pIC50 for the input molecule. Input: CC1(CO)C(O)C(n2cc(F)c(N)nc2=O)O[C@@H]1CO (stereo partly drawn) [LCB-1082]
< 3.30

Give the measured pIC50 of C[C@]1(C(N)=O)[C@H](O)[C@@H](n2ccc(N)nc2=O)O[C@@H]1CO [LCB-1087] .
< 3.30

# pIC50 lookup, item CC1(CO)C(O)[C@H](n2cnc3c(=O)nc(N)[nH]c(=O)c32)O[C@@H]1CO (stereo in doubt) [LCB-1097]
< 3.30

May I ask what pIC50 has been recorded for O=c1[nH]cc(F)c(=O)[nH]1 [5-FU, 5-fluorouracil, reference compound] ?
4.40
